- TESTED SYSTEM: PfENT1 (Plasmodium falciparum)
- Construct: expressed in transfected cells; host or cells: fui1Δ yeast (Saccharomyces cerevisiae), co-expressing GFP
- Sequence (Q8IDM6 whole entry): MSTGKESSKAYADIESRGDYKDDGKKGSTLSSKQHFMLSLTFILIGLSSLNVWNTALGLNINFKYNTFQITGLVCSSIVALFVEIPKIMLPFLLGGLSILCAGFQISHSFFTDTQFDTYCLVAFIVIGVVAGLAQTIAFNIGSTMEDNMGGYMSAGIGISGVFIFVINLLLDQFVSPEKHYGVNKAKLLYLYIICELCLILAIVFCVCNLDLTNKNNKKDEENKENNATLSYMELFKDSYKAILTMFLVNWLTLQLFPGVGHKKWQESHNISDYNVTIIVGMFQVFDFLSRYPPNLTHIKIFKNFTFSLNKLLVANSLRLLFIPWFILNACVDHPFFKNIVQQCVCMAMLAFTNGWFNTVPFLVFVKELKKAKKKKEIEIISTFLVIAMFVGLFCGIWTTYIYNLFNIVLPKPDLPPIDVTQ
- Type: cell-based
- EXPERIMENTAL CONDITIONS: primary HTS, compounds at 10 μM, 125 μM 5-FUrd
ENDPOINT NAME: Avg Normalized % maximal activity (%)
Give the number; % is assumed, so skip it.

Enquiry: Please give the documented Avg Normalized % maximal activity of Cc1ccnc(NC(=O)c2cccc(NC(=O)c3ccco3)c2)c1
Return: 7.09

Enquiry: Tell us which Avg Normalized % maximal activity value is on record for COc1cccc(C(CC(=O)O)S(C)(=O)=O)c1 (stereo not drawn)
Return: 2.12

Enquiry: Quote Avg Normalized % maximal activity reported for Cc1ccc(NC(=O)CSc2nc3cccnc3[nH]2)c(C)c1 please.
Return: 2.12

Enquiry: Using the record for COc1cc(NC(=O)CSc2nccc(C)n2)c(OC)cc1Cl , state its measured Avg Normalized % maximal activity.
Return: 4.28

Enquiry: Retrieve Avg Normalized % maximal activity measured for COc1ccc(-c2nnc(SCc3csc(C)n3)o2)cc1OC and print it.
Return: 3.09

Enquiry: Answer with reported Avg Normalized % maximal activity of COCCNCCOc1ccc(C(C)(C)C)cc1C.O=C(O)C(=O)O
Return: 4.58

Enquiry: Given Cn1c(=O)oc2cc(S(=O)(=O)Nc3ccccc3Br)ccc21 , respond with its Avg Normalized % maximal activity.
Return: 2.62

Enquiry: Read the entry COc1cc2c(cc1OC)-c1cc3ccc(OC)c(OC)c3c[n+]1CC2 and write its reported Avg Normalized % maximal activity.
Return: 6.56

Enquiry: Give Avg Normalized % maximal activity for O=[N+]([O-])c1ccc(C2Nc3c(F)cccc3C3C=CCC32)cc1 (stereo not drawn)
Return: 2.01

Enquiry: Please give measured Avg Normalized % maximal activity of the following entry: O=C(Cc1cccc2ccccc12)Nc1nncs1
Return: 7.27

Enquiry: Check the records and state Avg Normalized % maximal activity for CC(=O)c1ccc(NC(=O)CSc2nnc3c4ccccc4n(C)c3n2)cc1
Return: 3.07

Enquiry: Consider the molecule COc1ccc(-c2nc3ccccc3o2)cc1NC(=O)c1cccnc1 and give its recorded Avg Normalized % maximal activity.
Return: 14.03

Enquiry: Fill in reported Avg Normalized % maximal activity for this entry: CCOC(=O)CSc1nnc2c3ccccc3n(CC)c2n1
Return: 2.08

Enquiry: Give a short answer stating reported Avg Normalized % maximal activity for COc1ccc(OC)c(Nc2nc(=O)c3cccnc3s2)c1 .
Return: 7.19

Enquiry: Specify reported Avg Normalized % maximal activity for the molecule shown: O=P1(N(CCCl)CCCl)NCCCO1 (stereo not drawn)
Return: 5.76

Enquiry: Tell me Avg Normalized % maximal activity reported for Cc1cc(C)cc(C(=O)Nc2nnc(C)s2)c1
Return: 5.01

Enquiry: Answer with the recorded Avg Normalized % maximal activity for the molecule listed here: Cc1ccccc1C(=O)Nc1ccc2c(C)cc(=O)oc2c1
Return: 13.98

Enquiry: Give me measured Avg Normalized % maximal activity, please, for this molecule: CCSc1nnc(NC(=O)c2cccc(OC)c2)s1
Return: 4.39

Enquiry: Look up and state reported Avg Normalized % maximal activity for O=C(Nc1cccc(NC(=O)c2cccs2)c1)c1ccc(Br)o1
Return: 3.37

Enquiry: Give reported Avg Normalized % maximal activity value for O=C(Nc1cccc(NC(=O)c2cccs2)c1)c1cc2ccccc2o1
Return: 4.34

Enquiry: State its Avg Normalized % maximal activity: CCOc1ccccc1NC(=O)c1cccc(NC(=O)c2ccco2)c1
Return: 13.00

Enquiry: Supply Avg Normalized % maximal activity value. Item: Cc1cc(C)cc(C(=O)Nc2cccc(NC(=O)c3ccco3)c2)c1
Return: 6.27

Enquiry: Specify reported Avg Normalized % maximal activity for the molecule shown: CCC(=O)c1ccc(/C=C/c2nc3ccccc3n2C)o1
Return: 7.04

Enquiry: State, in one line, measured Avg Normalized % maximal activity of Cc1ccccc1/C=C/c1nc2ccccc2c(=O)[nH]1
Return: 24.69

Enquiry: Please supply the value of reported Avg Normalized % maximal activity for the item CC(C)c1nnc(NC(=O)c2cccc(I)c2)s1
Return: 4.10

Enquiry: Hello, please tell me recorded Avg Normalized % maximal activity for this one: Cc1cc(-c2ccccc2)nc(SCc2nc3ccccc3c(=O)[nH]2)n1
Return: 3.21

Enquiry: Quickly give me recorded Avg Normalized % maximal activity for CCOCc1nnc(NC(=O)c2ccc(OC)cc2)s1
Return: 8.66

Enquiry: For the molecule C[C@H]1CC[C@]2(NC1)O[C@H]1C[C@H]3[C@@H]4CC[C@H]5C[C@@H](O[C@@H]6O[C@H](CO)[C@H](O[C@@H]7O[C@H](CO)[C@@H](O)[C@H](O[C@@H]8OC[C@@H](O)[C@H](O)[C@H]8O)[C@H]7O[C@@H]7O[C@H](CO)[C@@H](O)[C@H](O)[C@H]7O)[C@H](O)[C@H]6O)CC[C@]5(C)[C@H]4CC[C@]3(C)[C@H]1[C@@H]2C , give its reported Avg Normalized % maximal activity.
Return: 5.00

Enquiry: State its Avg Normalized % maximal activity for this molecule: COc1cccc(C(=O)Nc2ccc(-c3nnc(-c4ccco4)o3)cc2)c1
Return: 11.40

Enquiry: Please give the documented Avg Normalized % maximal activity of Br.Cc1ccnc(Nc2nc(-c3cccnc3)cs2)c1
Return: 2.97

Enquiry: Determine from records and report Avg Normalized % maximal activity for COc1cc(NC(=O)c2cccc(Br)c2)nc(OC)n1
Return: 4.78

Enquiry: Specify reported Avg Normalized % maximal activity for the molecule shown: CCc1cccc(C)c1NS(=O)(=O)c1cccs1
Return: 11.14

Enquiry: Identify the reported Avg Normalized % maximal activity for the following entry. CC(=O)Nc1ccc(NC(=O)CSc2nc3ccccc3s2)cc1
Return: 1.93
